# targetOfAssay: T1, hBCMA (human BCMA) (Homo sapiens, UniProt Q02223)
# T1 sequence (Q02223 1-184): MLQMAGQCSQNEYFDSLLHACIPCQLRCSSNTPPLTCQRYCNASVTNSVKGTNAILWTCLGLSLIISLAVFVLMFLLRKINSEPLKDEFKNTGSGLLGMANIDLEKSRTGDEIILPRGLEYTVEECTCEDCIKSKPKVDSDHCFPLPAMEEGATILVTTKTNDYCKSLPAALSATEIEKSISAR
# protocol: Kinetics and affinity of hBCMA/human IgG interactions by SPR (Bio-Rad Proteon XPR36)
# Format: binding
# assayContext: human BCMA, 37° C.
propertyMeasured: ka Human

Please go through the list and note ka Human for each molecule.
1. COMBO_Rd4_0.6 nM_C14: anti-BCMA antibody (antibody, V domains shown) VH: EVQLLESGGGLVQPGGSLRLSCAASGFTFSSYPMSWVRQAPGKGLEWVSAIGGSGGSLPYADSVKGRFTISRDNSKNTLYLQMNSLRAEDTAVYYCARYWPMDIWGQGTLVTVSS VL: EIVLTQSPGTLSLSPGERATLSCRASQSVSALYLAWYQQKPGQAPRLLMYDASIRATGIPDRFSGSGSGTDFTLTISRLEPEDFAVYYCQQYYGWPLTFGQGTKVEIK
2. A02_Rd4_6 nM_C07: anti-BCMA antibody (antibody, V domains shown) VH: EVQLLESGGGLVQPGGSLRLSCAASGFTFSSYAMNWVRQAPGKGLEWVSAIGGSGGSLPYADSVKGRFTISRDNSKNTLYLQMNSLRAEDTAVYYCARYWPMDSWGQGTLVTVSS VL: EIVLTQSPGTLSLSPGERATLSCRASQSVSPYYLAWYQQKPGQAPRLLMYDASIRATGIPDRFSGSGSGTDFTLTISRLEPEDFAVYYCQQYERWPLTFGQGTKVEIK
3. COMBO_Rd4_6 nM_C22: anti-BCMA antibody (antibody, V domains shown) VH: EVQLLESGGGLVQPGGSLRLSCAASGFTFSSYAMNWVRQAPGKGLEWVSACLDSGGSTYYADSVKGRFTISRDNSKNTLYLQMNSLRAEDTAVYYCARYWPMDSWGQGTLVTVSS VL: EIVLTQSPGTLSLSPGERATLSCRASQSVSSSYLAWYQQKPGQAPRLLMYDASIRATGIPDRFSGSGSGTDFTLTISRLEPEDFAVYYCQQYQGWPLTFGQGTKVEIK

Response:
1. 8.66e+06 M⁻¹ s⁻¹
2. 1.48e+06 M⁻¹ s⁻¹
3. 3.03e+06 M⁻¹ s⁻¹
